Listed here are compounds together with their documented GI50.
System: UACC-257 melanoma
TEST NAME: NCI tumour cell line growth inhibition, 48 h
TEST READOUT: GI50

N#Cc1c(-c2cccs2)c2c(=S)[nH]c(=S)[nH]c2[nH]c1=S	18 µM
COc1cc(C(=O)NC2c3ccccc3-c3ccccc32)c(N)cc1OCc1ccccc1	58.7 µM
COc1ccc(/C=C/C=C(/C#N)C(N)=S)cc1	20.4 µM
CN(C)CC(=O)N1CCC(c2ccc(NC(=O)c3ncc(C#N)[nH]3)c(C3=CCCCC3)c2)CC1	2.17 µM
Oc1ccccc1/C=N/Nc1ccc2ccccc2n1	3.14 µM
N#CC(=C1SCS1)[N+](=O)[O-]	1.09 µM
O=C1/C(=C/c2ccc(F)cc2)CCOc2ccc([N+](=O)[O-])cc21	2.62 µM
CN1CCN(CC#Cc2cccc(C(=O)c3cnn(-c4ccc(F)cc4)c3N)c2)CC1	> 25 µM
CC(=O)OCC1OC(O[C@@H]2C[C@H]3C(C)(C)[C@H](OC(C)=O)CC[C@]3(C)[C@H]3CCC4=C([C@@H](C)C[C@@H](O)[C@H](O)C(C)(C)O)CC[C@@]4(C)[C@@]32C)C(O)C(O)C1O (stereo not given in full)	16.3 µM
COc1ccc(-c2nn(-c3cccc(Cl)c3)cc2C2CC(c3ccccc3)=NN2C(C)=O)cc1 (stereo not given)	32.1 µM
CC(C)(C)OC(=O)n1cc(CNC(=S)Nc2ccccc2)c2ccccc21	10.9 µM
Cc1nn(-c2ccc(S(=O)(=O)[O-])cc2)c([O-])c1N=[N+](C)c1ccc(-c2ccc(N=Nc3ccc4c(S(=O)(=O)[O-])cc(S(=O)(=O)[O-])c(N)c4c3[O-])c([O-])c2)cc1[O-].[Cu+2].[Cu+2].[Na+]	> 100 µM
C=C1C(=O)O[C@H]2[C@H]1CC/C(CNC(=O)c1c[nH]c3ccc(F)cc13)=C\CC[C@@]1(C)O[C@@H]21	2.06 µM
O=C(/C=C/c1ccc(Cl)cc1)c1ccc(Cl)cc1Cl	10.4 µM
O=C(CSc1nc2ccc([N+](=O)[O-])cc2[nH]1)Nc1ccc(F)c(Cl)c1	1.54 µM
Clc1ccccc1C(c1ccccc1)(c1ccccc1)n1ccnc1	3.43 µM
Cc1cc2nc3c4cc(Cl)ccc4n(CCN(C)C)c3nc2cc1C	1.76 µM
CCn1c(-c2nonc2N)nc2c(C#CCN)ncc(OCCCN)c21	> 25 µM
CCCCCCCCCCCCC(=O)OC(c1cnco1)c1nc(C(O)CC(O)C(O)C(C)O)co1 (stereo not given)	5.16 µM
CCCCCCCCCCCCCC(=S)NCCCC[C@H](NC(=O)OCc1ccccc1)C(=O)Nc1ccccc1	5.38 µM

---

Test system: 786-0 renal
TEST NAME: NCI tumour cell line growth inhibition, 48 h; in the data active = GI50 below about 0.43 µM; inactive = the rest
Outcomes: active, inactive

O=C(Nc1nc2ccccc2s1)OCC(F)(F)F	inactive
CC(C)(C)c1cc(O)c(O)c(C(C)(C)C)c1	inactive
O=C(CSc1nc2ccc([N+](=O)[O-])cc2[nH]1)Nc1ccc(F)c(Cl)c1	inactive
COc1ccc(-c2cc(-c3cc(Cl)ccc3Cl)nc3[nH]c(-c4cc(F)c(Cl)cc4Cl)cc(=O)c23)cc1	inactive
O=c1cc(-c2cccc(F)c2)[nH]c2cc3c(cc12)OCO3	active
O=C(NNc1nc2c(F)cccc2n2cccc12)c1cnccn1	active
COc1cc2ncn(-c3cc(OCc4ccccc4Cl)c(C(N)=O)s3)c2cc1OC	inactive
COc1c(C2CC(=O)Nc3c2cnn3Cc2ccco2)cc2c(c1OC)OCO2 (configuration not stated)	inactive
N#Cc1c(-c2cccs2)c2c(=S)[nH]c(=S)[nH]c2[nH]c1=S	inactive
O=C(c1cccs1)c1c(C(F)(F)F)n([O-])c2ccccc2[n+]1=O	inactive
COc1ccc(/C=C/C=C(/C#N)C(N)=S)cc1	inactive
C1COCCN1.C1COCCN1.N.N.[Cl-].[Pt+2]	inactive
COc1cc(C(=O)NC2c3ccccc3-c3ccccc32)c(N)cc1OCc1ccccc1	inactive
COc1ccc2cc1Oc1ccc(cc1)C[C@H]1c3cc(c(OC)cc3CCN1C)Oc1c(OC)c(OC)cc3c1[C@H](C2)N(C)CC3	inactive
O=C(/C=C/c1ccc(Cl)cc1)c1ccc(Cl)cc1Cl	inactive
C=C1CCC2C(/C=C(\C)CCC1O)OC(=O)C2C (configuration not stated)	inactive
COc1ccc(C(=S)N2CCN(c3cccc(Cl)c3)CC2)cc1	inactive
O=C(c1ccc2ccccc2c1)c1c(C(F)(F)F)n([O-])c2cc(Cl)c(Cl)cc2[n+]1=O	inactive
CC(C)(C)OC(=O)n1cc(CNC(=S)Nc2ccccc2)c2ccccc21	inactive
CCn1c(-c2nonc2N)nc2c(C#CCN)ncc(OCCCN)c21	inactive
Cc1nn(-c2ccc(F)cc2)c2ncnc(Nc3ccc(NC(=O)Nc4ccc(Cl)c(C(F)(F)F)c4)cc3)c12	inactive
CCCCCCCCCCCCC(=O)OC(c1cnco1)c1nc(C(O)CC(O)C(O)C(C)O)co1 (configuration not stated)	inactive

---

Test system: NCI-H460 lung
Outcomes: YES (active), NO (inactive)

C#Cc1cnc(=O)n(C2CC(O)C(CO)O2)c1 (centres undefined)	NO
O=C(Nc1cccc(-n2ccc3c(NC(=O)c4ccccc4)nccc32)c1)c1cccc(C(F)(F)F)c1	YES
C=C1C(O)C2CCC(C)(C)C(=O)C2=C(CC(C)C)C12CC2 (centres undefined)	NO
C=C1CCC2C(/C=C(\C)CCC1O)OC(=O)C2C (centres undefined)	NO
CCCCCCCCCCCCCC(=S)NCCCC[C@H](NC(=O)OCc1ccccc1)C(=O)Nc1ccccc1	NO
CC(=O)[CH-]C(=O)c1ccccc1.CC(=O)[CH-]C(=O)c1ccccc1.CCCCCCCCCCCCCCCCCC(=O)[O-].CCCCCCCCCCCCCCCCCC(=O)[O-].[Ti+4]	NO
COC1(C(=O)N2Cc3nc(Cl)nc(N[C@H](C)c4cc(N)cc(C(F)(F)F)c4)c3C2)CCOCC1	NO
C=C1C(=O)O[C@H]2[C@H]1CC/C(CNC(=O)c1c[nH]c3ccc(F)cc13)=C\CC[C@@]1(C)O[C@@H]21	NO
O=c1cc(-c2cccc(F)c2)[nH]c2cc3c(cc12)OCO3	YES
O=C(CCN1CCN(c2cnc3ccccc3n2)CC1)c1csc2ccccc12	NO
CN(C)CC(=O)N1CCC(c2ccc(NC(=O)c3ncc(C#N)[nH]3)c(C3=CCCCC3)c2)CC1	NO
O=C(NNc1nc2c(F)cccc2n2cccc12)c1cnccn1	YES
COc1ccc(NC(=O)Nc2n[nH]c3ccccc23)cc1	NO
Oc1ccccc1/C=N/Nc1ccc2ccccc2n1	NO

---

System: SR leukemia
TEST NAME: NCI tumour cell line growth inhibition, 48 h
Listed here are compounds together with their documented TGI.
TEST READOUT: TGI (µM)

COc1cc(/C=C\[N+](=O)[O-])ccc1O	38.5
C=CC(=O)Nc1cccc(-c2nc(SC)nc(Nc3ccccc3OC)c2C#N)c1	4.19
Nc1n[nH]c2ccc([C@@H]3Nc4ccc5[nH]ncc5c4[C@H]4[C@H]5CCC(C5)[C@H]43)cc12	20.2
CCC(C)C1NC(=O)c2nc(oc2-c2ccccc2)-c2csc(n2)-c2csc(n2)-c2nc(oc2C)-c2coc(n2)CNC(=O)C(C(C)CC)NC1=O (stereo not given)	0.212
COC(=O)C1(Cc2ccccc2)Cc2cc3c(cc2C1=O)CCC3 (stereo not given)	47.2

---

Tested on: CAKI-1 renal
TEST NAME: NCI tumour cell line growth inhibition, 48 h
TEST READOUT: TGI

CCOC(=O)c1cc(C2(O)CCN(Cc3ccccc3)C2=O)c(-c2cc(C)no2)[nH]1 (stereo unspecified)	74.3 µM
COc1cc2c3c(cccc3c1)C(=O)N(CCN1CCCC1)C2=O	> 100 µM
Cc1nn(-c2ccc(F)cc2)c2ncnc(Nc3ccc(NC(=O)Nc4ccc(Cl)c(C(F)(F)F)c4)cc3)c12	4.75 µM
Cc1nn(-c2ccc(S(=O)(=O)[O-])cc2)c([O-])c1N=[N+](C)c1ccc(-c2ccc(N=Nc3ccc4c(S(=O)(=O)[O-])cc(S(=O)(=O)[O-])c(N)c4c3[O-])c([O-])c2)cc1[O-].[Cu+2].[Cu+2].[Na+]	> 100 µM
Cc1ccc(S(=O)(=O)N2CCN3C(=O)c4ccccc4C32c2ccc(F)cc2)cc1 (stereo unspecified)	> 100 µM
CC(C)(C)OC(=O)NC(C)(C)C(=O)NCCC(=O)O	> 100 µM
O=c1[nH]cnc2c(C3OC(CO)C(O)C3O)c[nH]c12 (stereo unspecified)	> 100 µM
O=C1CC(=O)N(c2ccccc2)N1/C(=C/c1ccccc1)c1ccccc1	33.7 µM
CN(C)/C(=N/C(=S)Nc1ccccc1)SCc1ccccc1	> 100 µM
O=C1O[C@@H](c2ccccc2)C[C@@H]1CN1CCOCC1	> 100 µM
N#CC(=C1SCS1)[N+](=O)[O-]	16.2 µM
